FYI, the data here is from the Deep4Chem optical property database.

# Experimental protocol: solvent given as SMILES
# Settings: in ClC(Cl)Cl

# Compound structure, Output unit, absorption maximum
measured = [
    ("COc1ccc(/C=C/C(=O)c2ccccc2O)cc1OC", "nm", 355),
    ("CCC1(CC)c2cc(C#Cc3cc(C#Cc4ccc5c(c4)C(CC)(CC)c4cc(N(c6ccccc6)c6ccccc6)ccc4-5)c4ccc5c(C#Cc6ccc7c(c6)C(CC)(CC)c6cc(N(c8ccccc8)c8ccccc8)ccc6-7)cc(C#Cc6ccc7c(c6)C(CC)(CC)c6cc(N(c8ccccc8)c8ccccc8)ccc6-7)c6ccc3c4c65)ccc2-c2ccc(N(c3ccccc3)c3ccccc3)cc21", "nm", 503),
    ("CCC1=C(C)C2=Cc3ccccc3B(O)N2C1=O", "nm", 362),
    ("CCCCn1c(=O)c2cc3ccc4cccc5ccc(c2c1=O)c3c45", "nm", 427),
    ("CCCCc1ccc(-n2c3c4cc(F)ccc4nc(-c4ccc(OC)cc4)c3c3c2c2c(-c4ccc(OC)cc4)nc4ccc(F)cc4c2n3-c2ccc(CCCC)cc2)cc1", "nm", 305),
    ("CCCCN1c2ccc(/C=C/c3cc(=O)oc4cc(C)ccc34)cc2Sc2cc(/C=C/c3cc(=O)oc4cc(C)ccc34)ccc21", "nm", 441),
    ("c1ccncc1", "nm", 253),
    ("CN(C)c1ccc(/C=C/c2nc3c4ccccc4c4ccccc4c3[nH]2)cc1", "nm", 393),
    ("N#Cc1c(C#N)c2cc(Br)ccc2c2ccc(Br)cc12", "nm", 350),
    ("CCOc1ccc2c(-c3nc(-c4cccc(Br)c4)no3)cc(=O)oc2c1", "nm", 403),
    ("CC\\C=C/C=C/C=C/C=C\\CCCCCCCC(=O)O", "nm", 324.8),
    ("CC(C)(C)c1ccc2oc3nc4oc5ccc(N6c7ccccc7Sc7ccccc76)cc5c4cc3c2c1", "nm", 348),
]

----------
# Experimental protocol: solvent given as SMILES
# Settings: in C1CCOC1
Short version: absorption maximum at least 400 nm is YES, less is NO.

# Compound structure, Label class
rows = [
    ("COc1ccccc1C1=C2C(C)=CC(C)=[N+]2[B-](F)(F)n2c(C)cc(C)c21", "YES"),
    ("N#Cc1ccc(C=C(c2ccccc2)c2ccccc2)cc1", "NO"),
    ("CC1=CC2=C3C(=C4C(C)=C(c5ccc(-c6nc(-c7ccccc7)c(-c7ccccc7)[nH]6)cc5)S[C@@]4(C)[C@]2(C)S1)C(F)(F)C(F)(F)C3(F)F", "YES"),
    ("CN(C)c1ccc(C2=Cc3ccc4ccccc4[n+]3[B-](F)(F)O2)cc1", "YES"),
    ("c1ccc(-c2nc(-c3ccccc3)nc(-n3c4ccccc4c4cc(-n5c6ccccc6c6ccccc65)cc(-n5c6ccccc6c6ccccc65)c43)n2)cc1", "NO"),
    ("Cc1cc(C)n2c1C=C1c3ccccc3C(c3c[nH]c4ccccc34)=[N+]1[B-]2(F)F", "YES"),
    ("CCOC(=O)c1ccccc1-c1c2ccc(=O)cc-2oc2cc(OC(=O)[C@H](CO[Si](C)(C)C(C)(C)C)NC(=O)OC(C)(C)C)ccc12", "YES"),
    ("COc1cc(/C=C2\\C=C(c3ccccc3)C=C2c2ccccc2)cc(OC)c1", "YES"),
    ("c1ccc(-c2nc(-c3ccc(-c4cncc5ccccc45)cc3)[nH]c2-c2ccccc2)cc1", "NO"),
    ("C1=C(c2ccccc2)C=C(c2ccccc2)/C1=C/c1ccc2ccc3cccc4ccc1c2c34", "YES"),
    ("N#Cc1cc(-n2c3ccccc3c3ccccc32)c(-n2c3ccccc3c3ccccc32)cc1C#N", "NO"),
    ("CCC(=O)c1ccc2cc(N(C)C)ccc2c1", "NO"),
    ("O=C(O)c1ccc2ccc3cccc4ccc1c2c34", "NO"),
    ("CN(C)c1ccc(C#Cc2ccc(C#Cc3ccc(C#Cc4ccccc4C#N)cc3C#N)cc2C#N)cc1", "YES"),
    ("COc1cccc(C2=c3c(c4ccc(C(C)(C)C)cc4c4cc(C(C)(C)C)ccc34)=[N+]3C2=C(c2ccccc2)c2c(-c4cccc(OC)c4)c4c5ccc(C(C)(C)C)cc5c5cc(C(C)(C)C)ccc5c4n2[B-]3(F)F)c1", "YES"),
    ("O=C(c1ccc(N2c3ccccc3Sc3ccccc32)cc1)c1ccc2sc3ccccc3c2c1", "NO"),
]
